# METHOD: Quantitative High-Throughput drug screen in 47 multiple myeloma cell lines against the NCATS MIPE library collection: L363_DSMZ cell viability assay (AID 1918984); also: nearly all actives have a fitted effect of over 40% in size
# EXPERIMENTAL_SETUP: L363 myeloma viability, CellTiter-Glo ATP luminescence, 48 h; series mostly up to 45.8 µM
Results filed as inconclusive are left out. The source made the active and inactive calls. Calls follow the shape of the dose curve; as a rule, active = well fitted cell-killing curve with a large enough effect; inconclusive = small, poorly fitted or top-dose-only effect, or effect the other way; inactive = no such curve, though single readings can be large or run the other way.
I would appreciate it if you answered using one of these outcomes: active, inactive

Query block: GET /call?item= COc1ccc(Nc2nccc(NCCO)n2)cc1 returns the recorded outcome of this test.
Result block: inactive

Query block: GET /call?item= CC(C=CC=C(C)C=CC1=C(C)CCCC1(C)C)=CC=CC=C(C)C=CC=C(C)C=CC1=C(C)CCCC1(C)C returns the recorded outcome of this test.
Result block: active

Query block: GET /call?item= Oc1cc(-c2nc(-c3ccccc3)[nH]c2-c2ccncc2)ccc1Cl returns the recorded outcome of this test.
Result block: active

Query block: GET /call?item= CC(Cc1ccc(O)c(O)c1)(NN)C(=O)O (stereo unspecified) returns the recorded outcome of this test.
Result block: inactive

Query block: GET /call?item= CCNC(=O)c1cc2c(-c3cc(OCCN4CCCC4)c(Cl)cc3Cl)nc(N)nc2s1 returns the recorded outcome of this test.
Result block: active

Query block: GET /call?item= C[C@H](NC(=O)Cc1cc(F)cc(F)c1)C(=O)N[C@H](C(=O)OC(C)(C)C)c1ccccc1 returns the recorded outcome of this test.
Result block: inactive

Where do these numbers come from? They come from PubChem BioAssay (NCATS).
